- SYSTEM UNDER TEST: γ-secretase (Homo sapiens)
- Construct: endogenous in cells; host or cells: SKNBE2 human neuroblastoma cells (carrying hAPP 695 wild type as substrate)
- METHOD SUMMARY: Screening for γ-secretase-modulating activity: Aβ42 in supernatant of SKNBE2 cells carrying hAPP 695 wild type (Alphalisa)
- Type: cell-based
- TEST CONTEXT: SKNBE2 human neuroblastoma cells carrying hAPP 695 wild type, overnight incubation, Aβ42 in cell supernatant
TEST READOUT: pIC50
FYI, pIC50 means -log10 of a concentration in mol per litre.

{"COMPOUND": "Cc1cn(-c2ccc3n(c2=O)CCN(C(C)c2cn(C)c4cc(F)c(Cl)cc24)C3=O)cn1 (single isomer, unassigned) [compound 186]", "SYSTEM UNDER TEST": "γ-secretase (Homo sapiens)", "pIC50": 6.11}
{"COMPOUND": "Cc1cn(-c2ccc3n(c2=O)CCN(Cc2ccc(F)cc2C)C3=O)cn1 [compound 73]", "SYSTEM UNDER TEST": "γ-secretase (Homo sapiens)", "pIC50": 5.59}

What measured pIC50 goes with Cc1cn(-c2ccc3n(c2=O)CC(C)N(C(C)c2c[nH]c4c(F)cc(Cl)cc24)C3=O)cn1 (single isomer, unassigned) [compound 219] ?
7.70

Same question for Cc1cn(-c2ccc3n(c2=O)C[C@@H](C2CC2)N(Cc2ccc(Cl)c(Cl)c2)C3=O)cn1 [compound 33] please.
5.78

Further, for Cc1cn(-c2ccc3n(c2=O)C[C@@H](C)N(CCc2cc(C(F)(F)F)ccc2F)C3=O)cn1 [compound 232] ?
6.68

And the next one, Cc1cn(-c2ccc3n(c2=O)CCN(C(C)c2cccc(C(F)(F)F)c2)C3=O)cn1 (single isomer, unassigned) [11b] ?
5.11

Repeat for the following compound: COc1cccc(CN2C(=O)c3ccc(-n4cnc(C)c4)c(=O)n3C[C@H]2C)c1 [compound 132]
5.67

Also Cc1cn(-c2ccc3n(c2=O)C[C@@H](C)N(Cc2cc(OC(C)C)nc(C(F)(F)F)c2)C3=O)cn1 [compound 128] , if possible.
7.05

Field entry: Cc1cn(-c2ccc3n(c2=O)C[C@@H](C)N(Cc2cn(C)c4ccc(Cl)cc24)C3=O)cn1 [compound 137]
7.52
